Assay: self-splicing fitness, log relative to wild type (ln ratio); higher = more splicing; Tetrahymena group I intron in knt gene, E. coli kanamycin selection, DiMSum; sequences stand for … in CUCUCU…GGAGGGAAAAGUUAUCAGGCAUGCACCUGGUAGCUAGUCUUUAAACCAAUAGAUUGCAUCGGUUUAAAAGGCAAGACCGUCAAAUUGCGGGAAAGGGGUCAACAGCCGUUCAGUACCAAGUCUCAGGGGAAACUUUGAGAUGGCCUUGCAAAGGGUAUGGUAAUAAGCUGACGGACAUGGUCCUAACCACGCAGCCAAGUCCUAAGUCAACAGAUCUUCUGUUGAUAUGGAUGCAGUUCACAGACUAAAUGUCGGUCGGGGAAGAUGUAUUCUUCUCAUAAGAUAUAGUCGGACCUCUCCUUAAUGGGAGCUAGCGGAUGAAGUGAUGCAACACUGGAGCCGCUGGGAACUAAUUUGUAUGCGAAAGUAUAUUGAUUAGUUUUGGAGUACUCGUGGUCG;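 note: selection with 25 µg/mL kanamycin versus none on LB agar overnight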
Settings: 30 °C
Record form. Attribute: self-splicing fitness (ln). Fill in for each entry.
Give bare numbers.

As a guide, the following entries are already answered.
>>> result_number("UUGGAGCAAUAUUACGUGAA")
-2.62
>>> result_number("AAACAGCAAUAUUACGCGUC")
-2.3
>>> result_number("UAGAAGCAAUAUUACGACUU")
-0.772
>>> result_number("UAAGAGCAAUAUUACGCAUU")
-2.87

Look at each sequence and report its self-splicing fitness (ln).
1. UGACAGCAAUAUUACGCCAA
2. UCAAAGCAAUAUUACGGUCU
3. CAAAAGCAAUAUUACGUCAA
4. UUUGAGCAAUAUUACGGAAA
5. UCCUAGCAAUAUUACGAGUA
6. CUGCAGCAAUAUUACGUGUU
7. GUUCAGCAAUAUUACGCGCC
8. UACAAGCAAUAUUACGAAGC

result:
-1.51
-2.68
-3.34
-2.01
-1.12
-4.86
-1.96
-3.39

Look at each sequence and report its self-splicing fitness (ln).
1. UGGCAGCAAUAUUACGGAAA
2. AGCCAGCAAUAUUACGCCCG
3. CAAGAGCAAUAUUACGCGCG
4. GUGUAGCAAUAUUACGUAAA
5. CUACAGCAAUAUUACGGUUC
6. ACUAAGCAAUAUUACGAGAU
7. CUGUAGCAAUAUUACGAACU

result:
1. -1.94
2. -1.94
3. -1.47
4. -2.96
5. -2.93
6. -3
7. -2.78

Look at each sequence and report its self-splicing fitness (ln).
1. UCACAGCAAUAUUACGCUGC
2. UUUGAGCAAUAUUACGUCGU
3. AAUGAGCAAUAUUACGACCA
4. UGAAAGCAAUAUUACGCUAU
5. UGAGAGCAAUAUUACGUCUA
6. UCGAAGCAAUAUUACGGCGA
7. CCUCAGCAAUAUUACGCAAC

result:
1: -2.78; 2: -3.91; 3: -2.14; 4: -3.32; 5: -1.4; 6: -0.741; 7: -2.21

Look at each sequence and report its self-splicing fitness (ln).
1. UGACAGCAAUAUUACGUUGG
2. GUCUAGCAAUAUUACGCCAU
3. CUAUAGCAAUAUUACGUAUG

result:
[-2.08, -2.11, -1.52]

Look at each sequence and report its self-splicing fitness (ln).
1. CUGAAGCAAUAUUACGUUUU
2. GAAAAGCAAUAUUACGACCA
3. GGUUAGCAAUAUUACGUCAU
4. CGAGAGCAAUAUUACGAUCC
5. ACACAGCAAUAUUACGCCGA
6. GGUGAGCAAUAUUACGUAGC

result:
1: -3.46; 2: -0.386; 3: -1.03; 4: -3.95; 5: -1.15; 6: -2.64

Look at each sequence and report its self-splicing fitness (ln).
1. AAUAAGCAAUAUUACGAAGA
2. CUCAAGCAAUAUUACGAUAA
3. GAGCAGCAAUAUUACGAGAC
4. CCGCAGCAAUAUUACGCAUA

result:
[-1.52, -3.78, -2.97, -3.34]

Look at each sequence and report its self-splicing fitness (ln).
1. GUGAAGCAAUAUUACGAAAA
2. GAGUAGCAAUAUUACGGCGA
3. GAGAAGCAAUAUUACGUGUC
4. AUACAGCAAUAUUACGCAAG
5. GUAGAGCAAUAUUACGCCUG
6. AGUUAGCAAUAUUACGACAG
7. GUUAAGCAAUAUUACGCGUA
8. AAUCAGCAAUAUUACGCUUA

result:
-1.44
-0.645
-3.95
-2.28
-1.21
-0.556
-1.2
-0.484

Look at each sequence and report its self-splicing fitness (ln).
1. AAUGAGCAAUAUUACGCUUU
2. CCCGAGCAAUAUUACGAUCU
3. UAUCAGCAAUAUUACGUGGC
4. CAGAAGCAAUAUUACGUACU
5. AUCUAGCAAUAUUACGUGCG
6. UGGGAGCAAUAUUACGCGUC

result:
1: -3.41; 2: -3.09; 3: -4.28; 4: -1.83; 5: -1.47; 6: -0.5
